Reference source: paper PMC7308502

biological target: ParF (Salmonella enterica, UniProt Q9KJ83); construct: full-length, His-tagged (pET-22b(+)), produced in E. coli BL21(DE3); monomer with ADP, dimer and higher-order with ATP; test: fluorescence anisotropy titration; conditions: read-out: apparent Kd; 20 mM HEPES, 150 mM NaCl, 1 mM MgCl2, pH 7.0; 0.9 μM labelled compound; possible hydrolysis during measurement
Sequence (Q9KJ83 1-206): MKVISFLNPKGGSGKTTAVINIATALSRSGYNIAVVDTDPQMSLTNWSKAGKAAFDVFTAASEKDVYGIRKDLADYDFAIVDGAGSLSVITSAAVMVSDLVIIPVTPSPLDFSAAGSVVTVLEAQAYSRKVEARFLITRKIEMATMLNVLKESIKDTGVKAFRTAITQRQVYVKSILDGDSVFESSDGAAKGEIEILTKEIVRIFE
pKd: −log10 of the molar value.
property-measured: pKd

Please look up its pKd: CNc1ccccc1C(=O)O[C@H]1[C@@H](O)[C@H](n2cnc3c(N)ncnc32)O[C@@H]1CO[P@@](=O)(O)O[P@](=O)(O)OP(=O)(O)O
~6.30
